target: human ether-à-go-go-related gene (hERG) potassium channel (human, UniProt Q12809); test: primary screen, population patch clamp on CHO cells stably expressing hERG; higher = less effect of the substance;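 further: peak tail current of the secondary pulse compared with the same well before compound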
Sequence (Q12809 whole entry, looked up): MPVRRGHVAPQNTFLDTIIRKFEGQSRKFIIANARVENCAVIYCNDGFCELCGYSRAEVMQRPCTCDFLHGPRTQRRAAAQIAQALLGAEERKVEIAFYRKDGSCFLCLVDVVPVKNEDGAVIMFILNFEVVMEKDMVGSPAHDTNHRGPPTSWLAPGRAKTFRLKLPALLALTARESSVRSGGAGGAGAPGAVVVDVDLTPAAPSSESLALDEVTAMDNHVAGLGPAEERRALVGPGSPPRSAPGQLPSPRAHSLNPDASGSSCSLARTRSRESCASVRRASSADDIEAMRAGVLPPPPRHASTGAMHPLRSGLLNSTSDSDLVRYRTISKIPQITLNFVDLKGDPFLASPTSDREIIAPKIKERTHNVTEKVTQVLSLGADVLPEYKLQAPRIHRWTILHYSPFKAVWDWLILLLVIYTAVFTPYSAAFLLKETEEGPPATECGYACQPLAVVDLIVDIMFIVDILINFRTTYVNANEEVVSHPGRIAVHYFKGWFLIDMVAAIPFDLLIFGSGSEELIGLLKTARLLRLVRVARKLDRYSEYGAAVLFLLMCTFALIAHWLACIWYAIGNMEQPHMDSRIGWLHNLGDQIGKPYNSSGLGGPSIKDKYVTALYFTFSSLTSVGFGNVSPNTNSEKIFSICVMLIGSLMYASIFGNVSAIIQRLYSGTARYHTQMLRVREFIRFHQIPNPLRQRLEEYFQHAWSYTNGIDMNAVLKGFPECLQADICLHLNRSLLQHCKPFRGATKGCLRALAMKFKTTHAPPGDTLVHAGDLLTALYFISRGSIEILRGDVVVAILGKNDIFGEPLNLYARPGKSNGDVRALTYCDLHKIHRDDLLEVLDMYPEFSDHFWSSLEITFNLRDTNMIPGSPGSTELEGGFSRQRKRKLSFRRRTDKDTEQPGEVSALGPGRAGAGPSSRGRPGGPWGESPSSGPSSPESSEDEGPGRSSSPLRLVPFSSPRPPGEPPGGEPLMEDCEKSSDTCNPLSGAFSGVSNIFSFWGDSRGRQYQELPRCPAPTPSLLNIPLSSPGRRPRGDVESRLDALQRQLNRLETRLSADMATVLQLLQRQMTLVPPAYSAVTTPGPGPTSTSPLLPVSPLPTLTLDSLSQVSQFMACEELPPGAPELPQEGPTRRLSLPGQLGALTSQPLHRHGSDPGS
In all, about 310,000 compounds went through this assay and about 14,000 (4.5%) showed an effect of 50% or more. Effects have a minus sign here. The full list was thinned out, with strong results kept by preference.
VALUE TYPE: hERG current change (%, negative = inhibition) at 10uM (%)
Write the answer as a number in %, unit excluded.

### Prompt Given the entry COCCCNCC(=O)Nc1ccc(OC(F)(F)F)cc1.Cl , report its measured hERG current change (%, negative = inhibition) at 10uM.
### Response -30

### Prompt Given the entry Cc1ccc(Nc2nc(COC(=O)C3CC3)cs2)cc1 , report its measured hERG current change (%, negative = inhibition) at 10uM.
### Response -13.1

### Prompt Given the entry COc1ccc([N+](=O)[O-])cc1NC(=O)Nc1ccc(OC)c(OC)c1 , report its measured hERG current change (%, negative = inhibition) at 10uM.
### Response 8.37

### Prompt Given the entry COc1ccccc1N1CCN(C(=O)CCN2C(=O)c3cccc4cccc(c34)C2=O)CC1 , report its measured hERG current change (%, negative = inhibition) at 10uM.
### Response 15.5

### Prompt Given the entry CCn1ncc(S(=O)(=O)N2CCN(c3cccc(OC)c3)CC2)c1C , report its measured hERG current change (%, negative = inhibition) at 10uM.
### Response 5.68

### Prompt Given the entry CC(C)CCn1c(=O)c2ccccc2n2c(CN(C)Cc3ccccc3)nnc12 , report its measured hERG current change (%, negative = inhibition) at 10uM.
### Response -80.7

### Prompt Given the entry Cc1ccc2[nH]c3c(=O)n(CC(=O)Nc4ccccc4N4CCN(C)CC4)ncc3c2c1 , report its measured hERG current change (%, negative = inhibition) at 10uM.
### Response -5.73

### Prompt Given the entry CCn1cnc2cc(NCc3nc4ccccc4n3Cc3ccccc3)ccc21 , report its measured hERG current change (%, negative = inhibition) at 10uM.
### Response -65.6

### Prompt Given the entry O=C(CN1C(=O)COc2ccccc21)NCCCN1CCN(Cc2ccccc2)CC1 , report its measured hERG current change (%, negative = inhibition) at 10uM.
### Response -11.7

### Prompt Given the entry CC1CCC(C(C)C)C(OC(=O)C2=C3c4ccccc4S(=O)(=O)N3CC2)C1 (stereo not shown) , report its measured hERG current change (%, negative = inhibition) at 10uM.
### Response 12.3

### Prompt Given the entry Cc1ccccc1OCCCCCCN1CCNCC1.O=C(O)C(=O)O , report its measured hERG current change (%, negative = inhibition) at 10uM.
### Response -1.56

### Prompt Given the entry CC(C)CCn1c(=O)c2ccccc2n2c(CCl)nnc12 , report its measured hERG current change (%, negative = inhibition) at 10uM.
### Response -32.8

### Prompt Given the entry CCn1cnc2cc(NCc3cccs3)ccc21 , report its measured hERG current change (%, negative = inhibition) at 10uM.
### Response -15.9

### Prompt Given the entry CC(C)CCn1c(=O)c2ccccc2n2c(CN3CCOCC3)nnc12 , report its measured hERG current change (%, negative = inhibition) at 10uM.
### Response -11.9

### Prompt Given the entry O=C(CNS(=O)(=O)c1ccccc1)N1CCN(Cc2ccccc2)CC1 , report its measured hERG current change (%, negative = inhibition) at 10uM.
### Response 5.89

### Prompt Given the entry CC(=O)c1c(NCCc2ccccc2)nc(=S)n(-c2ccccc2)c1C , report its measured hERG current change (%, negative = inhibition) at 10uM.
### Response 7.04

### Prompt Given the entry O=C(NCCCl)Nc1cc([N+](=O)[O-])ccc1Cl , report its measured hERG current change (%, negative = inhibition) at 10uM.
### Response 16.9

### Prompt Given the entry COCCNCC(=O)Nc1ccc(OC(F)(F)F)cc1.Cl , report its measured hERG current change (%, negative = inhibition) at 10uM.
### Response -33.9

### Prompt Given the entry CCOc1cc(NC2CS(=O)(=O)CC2O)c(OCC)cc1NC(=O)c1ccccc1 (stereo not shown) , report its measured hERG current change (%, negative = inhibition) at 10uM.
### Response 5.95

### Prompt Given the entry CN(CC(=O)Nc1ccc(SC(F)F)cc1)C1CCCCC1 , report its measured hERG current change (%, negative = inhibition) at 10uM.
### Response -70

### Prompt Given the entry CN(CC(=O)Nc1ccc(Cl)cc1)C1CCCCC1 , report its measured hERG current change (%, negative = inhibition) at 10uM.
### Response -10

### Prompt Given the entry CCN1CCc2c(sc(N)c2C#N)C1 , report its measured hERG current change (%, negative = inhibition) at 10uM.
### Response 5.55
